Test system: Raw 264.7 cells
test description: Cytotoxicity in Raw 264.7 cells (MTT assay)
Assay type: cell-based
Design: unit not given here
assay context: highest concentration 500 μM
Reported TC50 to Raw 264.7 cells values follow for various compounds

Worked set:
# molecule, TC50 to Raw 264.7 cells
data = [
    ("O=C(/C=C/c1ccccc1)Nc1ccc(S(=O)(=O)N2CCCC2)cc1", ">200"),
    ("O=C(/C=C/c1ccccc1Br)Nc1ccc(S(=O)(=O)N2CCCC2)cc1", ">200"),
    ("O=C(/C=C/c1cccc(-c2ccccc2)c1)Nc1ccc(S(=O)(=O)N2CCCC2)cc1", ">200"),
    ("Cc1ccc(/C=C/C(=O)Nc2ccc(S(=O)(=O)N3CCCC3)cc2)cc1", ">200"),
    ("CC(=O)Oc1ccc(/C=C/C(=O)Nc2ccc(S(=O)(=O)N3CCCC3)cc2)cc1", "~150"),
    ("O=C(/C=C/c1ccc(Br)cc1)Nc1ccc(S(=O)(=O)N2CCCC2)cc1", ">200"),
    ("O=C(/C=C/c1ccc(O)cc1)Nc1ccc(S(=O)(=O)N2CCCC2)cc1", 75),
]

Moving on to another compound below.
For reference, reported TC50 to Raw 264.7 cells for Cc1ccccc1/C=C/C(=O)Nc1ccc(S(=O)(=O)N2CCCC2)cc1 stands at >200

###

Reported TC50 to Raw 264.7 cells values follow for various compounds
Tested on: Raw 264.7 cells
test description: Cytotoxicity in Raw 264.7 cells (MTT assay)
Format: cell-based
Parameters: unit not given here
assay context: highest concentration 500 μM

Worked set:
# compound, target entity, recorded result
data = [
    ("O=C(/C=C/c1cccc(Br)c1)Nc1ccc(S(=O)(=O)N2CCCC2)cc1 [Compound 11]", "Raw 264.7 cells", ">200"),
    ("CC(=O)Oc1ccccc1/C=C/C(=O)Nc1ccc(S(=O)(=O)N2CCCC2)cc1 [Compound 18]", "Raw 264.7 cells", "~150"),
]

Moving on to another compound below.
For CC(=O)Oc1cccc(/C=C/C(=O)Nc2ccc(S(=O)(=O)N3CCCC3)cc2)c1 [Compound 17] on Raw 264.7 cells, measured TC50 to Raw 264.7 cells was ~75

###

Reported Relative ratio to NP16 based on inhibition ratio values follow for various compounds
Tested on: S. aureus pigment formation (staphyloxanthin production)
test description: In vitro pigment inhibition / staphyloxanthin production in S. aureus
Type: cell-based, Staphylococcus aureus
assay context: S. aureus USA300, staphyloxanthin methanol extract OD 450 nm, compounds 300 nM to 700 nM, NP16 = 1
# print the numeric value only

# compound, recorded result
measured = [
    ("O=C(/C=C/c1cccc(-c2ccccc2)c1)Nc1ccc(S(=O)(=O)N2CCCC2)cc1 [Compound 20]", 0.61),
]

Moving on to another compound below.
For CC(=O)Oc1ccccc1/C=C/C(=O)Nc1ccc(S(=O)(=O)N2CCCC2)cc1 [Compound 18] on S. aureus pigment formation (staphyloxanthin production), measured Relative ratio to NP16 based on inhibition ratio was 0.35

###

test description: Solubility limit in cytotoxicity testing
Type: physicochemical
assay context: cytotoxicity (MTT) assay medium; read-out: Highest concentration that could be used due to solubility limitations
endpoint label: solubility (µM)
Could you give me the number in µM? Just the number is fine.

For reference, reported solubility for O=C(/C=C/c1ccccc1)Nc1ccc(S(=O)(=O)N2CCCC2)cc1 [Compound 1] stands at 500

###

Reported Relative ratio to NP16 based on inhibition ratio values follow for various compounds
Tested on: S. aureus pigment formation (staphyloxanthin production)
test description: In vitro pigment inhibition / staphyloxanthin production in S. aureus
Assay type: cell-based, Staphylococcus aureus
assay context: S. aureus USA300, staphyloxanthin methanol extract OD 450 nm, compounds 300 nM to 700 nM, NP16 = 1

# molecule, target entity, recorded result
records = [
    ("Cc1ccccc1/C=C/C(=O)Nc1ccc(S(=O)(=O)N2CCCC2)cc1", "S. aureus pigment formation (staphyloxanthin production)", 1.73),
    ("O=C(/C=C/c1ccccc1Br)Nc1ccc(S(=O)(=O)N2CCCC2)cc1", "S. aureus pigment formation (staphyloxanthin production)", 2.35),
    ("O=C(/C=C/c1ccc(O)cc1)Nc1ccc(S(=O)(=O)N2CCCC2)cc1", "S. aureus pigment formation (staphyloxanthin production)", 0.33),
]

For reference, reported Relative ratio to NP16 based on inhibition ratio for O=C(/C=C/c1ccc(Br)cc1)Nc1ccc(S(=O)(=O)N2CCCC2)cc1 stands at 0.25

For reference, reported Relative ratio to NP16 based on inhibition ratio for Cc1ccc(/C=C/C(=O)Nc2ccc(S(=O)(=O)N3CCCC3)cc2)cc1 stands at 0.83

###

System: S. aureus pigment formation (staphyloxanthin production)
test description: In vitro pigment inhibition / staphyloxanthin production in S. aureus
Assay type: cell-based, Staphylococcus aureus
assay context: S. aureus USA300, staphyloxanthin methanol extract OD 450 nm, compounds 300 nM to 700 nM, NP16 = 1
Experimental: S. aureus was propagated in Brain Heart Infusion broth (BHI) or on BHI agar (Oxoid). […] The OD of the extracts were monitor at 450 nm using DTX880 multi-plate reader spectrophotometer (Beckman). […] The cytotoxicity of NP-16 and some of it analogues was tested against Raw 264.7 cells, and the cell tolerance of each compounds were documented in Table 3. […] The staphyloxanthin from the overnight-cultured bacteria were extracted with methanol and quantified in via spectrophotometry. […]
Reported Relative ratio to NP16 based on inhibition ratio values follow for various compounds
# print the numeric value only

Worked set:
# compound, recorded result
data = [
    ("CC(=O)Oc1ccc(/C=C/C(=O)Nc2ccc(S(=O)(=O)N3CCCC3)cc2)cc1 [Compound 19]", 0.86),
    ("O=C(/C=C/c1cccc(Br)c1)Nc1ccc(S(=O)(=O)N2CCCC2)cc1 [Compound 11]", 1.03),
]

For reference, reported Relative ratio to NP16 based on inhibition ratio for CC(=O)Oc1cccc(/C=C/C(=O)Nc2ccc(S(=O)(=O)N3CCCC3)cc2)c1 [Compound 17] stands at 0.58

src = patent US11446280B2
